Data origin, for the record: ChEMBL document CHEMBL4808148

target: Protein deacetylase HDAC6 (Homo sapiens); conditions: at 10 µM
The campaign covered roughly 5,600 compounds. About 390 (7%) showed an effect of 50% or more. The list comes from a sample in which strong results are over-represented; it also holds close analogues and randomly drawn compounds.
Categorized via inhibition: bottom bin: < 10%; middle bin: ≥ 10% and < 20%; top bin: ≥ 20%

# compound, assaySystem, labelClass
records = [
    ("COc1ccc(CNC(=O)c2cc(-c3cncc(C)c3)ncc2-c2nccs2)nc1OC", "Protein deacetylase HDAC6 (Homo sapiens)", "bottom bin"),
]

Okay, next one:
## Task Which inhibition band matches `c1ccc2c(Cc3c[nH]c4ccccc34)c[nH]c2c1` ?
## Result top bin

====

Listing of entries alongside the reported inhibition.
Biological target: Protein deacetylase HDAC6 (Homo sapiens)
Sequence (whole entry): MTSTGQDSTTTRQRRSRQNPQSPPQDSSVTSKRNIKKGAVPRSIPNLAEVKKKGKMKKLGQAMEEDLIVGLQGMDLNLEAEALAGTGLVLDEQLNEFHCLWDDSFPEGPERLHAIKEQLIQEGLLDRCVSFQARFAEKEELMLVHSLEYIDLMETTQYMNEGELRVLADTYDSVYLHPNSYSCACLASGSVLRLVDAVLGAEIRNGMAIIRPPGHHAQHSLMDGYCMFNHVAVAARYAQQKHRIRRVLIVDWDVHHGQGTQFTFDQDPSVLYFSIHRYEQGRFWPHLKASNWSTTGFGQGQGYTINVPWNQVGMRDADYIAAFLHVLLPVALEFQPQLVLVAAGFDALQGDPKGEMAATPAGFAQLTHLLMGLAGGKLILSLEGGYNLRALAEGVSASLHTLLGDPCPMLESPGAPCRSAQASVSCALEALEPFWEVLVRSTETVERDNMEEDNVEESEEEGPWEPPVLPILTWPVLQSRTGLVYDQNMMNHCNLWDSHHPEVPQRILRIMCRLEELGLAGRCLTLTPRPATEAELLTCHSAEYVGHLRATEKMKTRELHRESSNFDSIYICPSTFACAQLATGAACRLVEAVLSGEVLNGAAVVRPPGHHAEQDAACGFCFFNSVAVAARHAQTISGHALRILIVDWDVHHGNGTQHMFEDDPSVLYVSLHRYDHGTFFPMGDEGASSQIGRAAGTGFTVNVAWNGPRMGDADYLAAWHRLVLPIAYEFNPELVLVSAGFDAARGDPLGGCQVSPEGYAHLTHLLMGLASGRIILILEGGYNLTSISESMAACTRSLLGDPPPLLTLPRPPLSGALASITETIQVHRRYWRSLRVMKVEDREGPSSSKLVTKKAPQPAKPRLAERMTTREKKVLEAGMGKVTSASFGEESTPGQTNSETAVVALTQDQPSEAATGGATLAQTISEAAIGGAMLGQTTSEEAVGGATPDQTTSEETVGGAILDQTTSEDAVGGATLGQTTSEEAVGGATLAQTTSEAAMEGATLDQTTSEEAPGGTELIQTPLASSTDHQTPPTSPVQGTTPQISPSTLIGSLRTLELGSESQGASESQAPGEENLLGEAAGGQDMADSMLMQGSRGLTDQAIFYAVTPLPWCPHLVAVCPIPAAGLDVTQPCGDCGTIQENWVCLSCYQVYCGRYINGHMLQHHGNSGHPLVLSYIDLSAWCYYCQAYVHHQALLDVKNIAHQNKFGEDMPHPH
Settings: at 10 µM
Among all 5,600 compounds or so, about 390 (7%) showed an effect of 50% or more. For the sample, strong results were picked, then their nearest neighbours and some compounds at random. Non-standard residues stand in square brackets, D forms with d. Residues, ends and D or L forms follow the SMILES beside them. dPhe(4-Cl) = N[C@H](Cc1ccc(Cl)cc1)C(=O)O; d2Nal = N[C@H](Cc1ccc2ccccc2c1)C(=O)O; dCit = NC(=O)NCCC[C@@H](N)C(=O)O; d3Pal = N[C@H](Cc1cccnc1)C(=O)O
// return numeric value only (unit: %, not printed)

Below, 5 compounds whose answers are already recorded.
# compound, inhibition (%)
data = [
    ("CCCCC1(COC(=O)CCC(=O)O)C(=O)N(c2ccccc2)N(c2ccccc2)C1=O", 37.6),
    ("O=C(O)COc1ccc(C(=O)c2cccs2)c(Cl)c1Cl", 19.9),
    ("Cc1cc(-c2ccc(CC(=O)Nc3ccc(-c4cccnc4)cc3)cc2)ccn1", 37.6),
    ("Cc1sc2c(c1C)C(c1ccc(Cl)cc1)=N[C@@H](CC(=O)Nc1ccc(OCCOCCOCCOCCNc3cccc4c3C(=O)N(C3CCC(=O)NC3=O)C4=O)cc1)c1nnc(C)n1-2 (some centres undefined)", 9.19),
    ("O=C(Nc1ccc([N+](=O)[O-])cc1O)Nc1ccccc1Br", 101),
]

The measured inhibition that `Cc1ccc(F)cc1C(=O)Nc1ccc(C(=O)N2Cc3cccn3Cc3ccccc32)c(Cl)c1` showed for Protein deacetylase HDAC6 (Homo sapiens) is -1.78

The reported Protein deacetylase HDAC6 (Homo sapiens) inhibition of CC(=O)N[C@H](Cc1ccc2ccccc2c1)C(=O)N[C@H](Cc1ccc(Cl)cc1)C(=O)N[C@H](Cc1cccnc1)C(=O)N[C@@H](CO)C(=O)N[C@@H](Cc1ccc(O)cc1)C(=O)N[C@H](CCCNC(N)=O)C(=O)N[C@@H](CC(C)C)C(=O)N[C@@H](CCCNC(=N)N)C(=O)N1CCC[C@H]1C(=O)N[C@H](C)C(N)=O (Ac-[d2Nal][dPhe(4-Cl)][d3Pal]SY[dCit]LRP[dA]-NH2) is 30.9

Observed inhibition, Protein deacetylase HDAC6 (Homo sapiens), COc1ccccc1OC(=O)C(C)c1ccc(CC(C)C)cc1 (centres undefined) : 10.7

Reported Protein deacetylase HDAC6 (Homo sapiens) inhibition for item `NC(=O)c1ccc([N+](=O)[O-])cc1Cl` was 8.11

====

Target: Protein deacetylase HDAC6 (Homo sapiens) (UniProt Q9UBN7)
Sequence (whole entry): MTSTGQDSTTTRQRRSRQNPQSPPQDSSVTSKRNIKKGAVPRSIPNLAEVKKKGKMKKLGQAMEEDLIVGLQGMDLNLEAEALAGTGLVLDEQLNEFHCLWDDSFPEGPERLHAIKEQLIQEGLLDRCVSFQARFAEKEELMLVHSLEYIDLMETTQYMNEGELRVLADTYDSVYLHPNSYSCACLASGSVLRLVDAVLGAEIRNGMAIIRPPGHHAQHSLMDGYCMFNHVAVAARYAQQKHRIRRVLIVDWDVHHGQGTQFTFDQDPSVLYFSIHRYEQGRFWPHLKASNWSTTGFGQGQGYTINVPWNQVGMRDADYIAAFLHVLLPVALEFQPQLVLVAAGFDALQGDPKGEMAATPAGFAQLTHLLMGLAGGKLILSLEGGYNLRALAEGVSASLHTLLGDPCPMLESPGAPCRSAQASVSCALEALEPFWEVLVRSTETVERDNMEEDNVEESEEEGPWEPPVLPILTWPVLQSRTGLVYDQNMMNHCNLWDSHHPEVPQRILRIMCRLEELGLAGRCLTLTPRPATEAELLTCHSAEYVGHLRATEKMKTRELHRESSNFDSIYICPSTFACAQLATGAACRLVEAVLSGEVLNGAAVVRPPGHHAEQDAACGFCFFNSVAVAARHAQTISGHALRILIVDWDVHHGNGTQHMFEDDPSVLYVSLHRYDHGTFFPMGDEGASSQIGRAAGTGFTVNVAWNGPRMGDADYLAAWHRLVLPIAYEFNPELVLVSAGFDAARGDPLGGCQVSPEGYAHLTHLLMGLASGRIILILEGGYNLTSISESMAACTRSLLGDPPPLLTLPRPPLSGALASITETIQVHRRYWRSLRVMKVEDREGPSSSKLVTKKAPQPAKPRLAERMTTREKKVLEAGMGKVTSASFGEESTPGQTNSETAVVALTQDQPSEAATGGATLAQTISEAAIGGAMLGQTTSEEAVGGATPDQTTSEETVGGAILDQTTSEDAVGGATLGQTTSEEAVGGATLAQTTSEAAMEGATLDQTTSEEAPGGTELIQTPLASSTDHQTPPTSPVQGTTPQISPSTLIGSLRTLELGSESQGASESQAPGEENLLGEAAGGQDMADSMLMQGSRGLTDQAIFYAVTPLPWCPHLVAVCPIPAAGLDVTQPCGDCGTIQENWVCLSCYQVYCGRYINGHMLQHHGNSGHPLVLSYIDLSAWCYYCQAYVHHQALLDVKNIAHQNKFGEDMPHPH
Conditions: at 10 µM
Out of some 5,600 compounds screened, about 390 (7%) showed an effect of 50% or more. The sample as a whole holds a higher share of strong results than the screen did. Starred links: 1 amine or outer side, 2 acyl side, 3 side chain; linkers in the order of their positions; H or OH if unused. Positions of bridges follow the written chain, without caps; N, C: chain ends. Residues, ends and D or L forms follow the SMILES beside them. X5 = O=C(CCC[*:2])[*:1]
Hi, to clarify the labels: YES covers inhibition from 20% upward, NO covers anything below 20%.

# compound, labelClass
measured = [
    ("COc1ccccc1CC(=N)N1C[C@@H]2C(=O)CCC(c3ccccc3)(c3ccccc3)[C@@H]2C1", "NO"),
    ("O=C1c2ccccc2C(=O)C1c1ccc(Cl)cc1", "NO"),
    ("O=C1C(Cl)=C(NCCN2CCOCC2)C(=O)c2ncccc21", "NO"),
    ("CC[C@H](C)[C@@H]1NC(=O)[C@H](Cc2ccc(OC)cc2)NC(=O)CCCSC[C@@H](C(=O)N2CCC[C@H]2C(=O)N[C@@H](CC(C)C)C(=O)NCC(N)=O)NC(=O)[C@H](CC(N)=O)NC(=O)[C@H](CCC(N)=O)NC1=O (Y(Me)IQNCPLG-NH2; linker N-5 via X5)", "NO"),
    ("C=CCN(C)CCCCCCOc1ccc(C(=O)c2ccc(Br)cc2)c(F)c1", "NO"),
]

## Task Please indicate if the recorded inhibition for `O=C1c2c(O)cc(O)cc2O[C@H](c2ccc(O)c(O)c2)[C@H]1O` meets or exceeds 20%.
## Result NO

## Task Does the compound `CN(NC(=O)CC(=O)NN(C)C(=S)c1ccccc1)C(=S)c1ccccc1` have recorded inhibition that is 20% or more?
## Result NO

## Task Check if inhibition >= 20% (inclusive). Item: `CC(C)Oc1ccc2c(=O)c(-c3ccccc3)coc2c1`
## Result YES

## Task Please tell me: is the compound `Oc1ccc2ccccc2c1Cc1c(O)ccc2ccccc12` at or over 20% in terms of inhibition?
## Result YES

## Task Please check the record `O=C1NC(c2cccc([N+](=O)[O-])c2)=CCN1c1ccccc1O` and state if its inhibition is at or above 20%.
## Result YES

## Task Confirm if inhibition reported for the compound `Cc1cc(N)c2ccccc2[n+]1CCCCCCCCCC[n+]1c(C)cc(N)c2ccccc21` is 20% or above.
## Result NO
